Catalogue of percentage reduction of b-hBSSL binding to CD14+ monocytes readings, one per entry.
tgt: T1, Biotinylated human BSSL (human, UniProt P19835 21-753, Biotinylated on glycosacarides, 30-40 biotin/BSSL)
T1 construct: hBSSL biotinylated in house; also called b-hBSSL; human BSSL-biotin
T1 sequence: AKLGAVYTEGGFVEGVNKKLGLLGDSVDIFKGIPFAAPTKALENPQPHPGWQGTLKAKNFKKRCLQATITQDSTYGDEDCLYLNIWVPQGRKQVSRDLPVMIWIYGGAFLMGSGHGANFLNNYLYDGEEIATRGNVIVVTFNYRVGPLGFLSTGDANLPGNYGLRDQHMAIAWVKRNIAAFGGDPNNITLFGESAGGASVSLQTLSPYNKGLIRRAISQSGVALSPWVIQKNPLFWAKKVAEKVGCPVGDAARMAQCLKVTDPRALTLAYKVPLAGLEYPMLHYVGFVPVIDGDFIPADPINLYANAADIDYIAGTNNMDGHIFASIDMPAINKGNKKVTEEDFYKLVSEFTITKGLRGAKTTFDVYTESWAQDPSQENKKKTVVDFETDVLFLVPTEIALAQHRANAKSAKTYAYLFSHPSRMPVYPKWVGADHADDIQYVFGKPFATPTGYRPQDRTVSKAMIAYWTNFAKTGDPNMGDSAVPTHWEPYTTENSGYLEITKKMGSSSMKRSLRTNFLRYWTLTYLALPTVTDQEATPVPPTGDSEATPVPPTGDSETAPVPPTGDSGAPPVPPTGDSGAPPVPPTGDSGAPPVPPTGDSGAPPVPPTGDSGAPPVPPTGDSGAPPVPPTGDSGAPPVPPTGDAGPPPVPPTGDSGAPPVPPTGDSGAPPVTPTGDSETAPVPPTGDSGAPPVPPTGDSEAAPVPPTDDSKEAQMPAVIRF
assay_overview: flow cytometry displacement assay; 3.0 ug antibody, 1 ug b-hBSSL
Write the number in % without appending the unit.

Study these solved cases before continuing.
binder	numeric_readout
AS20 mouse IgG1 (antibody, V domains shown, also called AS20 mlgG1; AS20 mIgG1) VH: QVQLQQPGAELVKPGASVKMSCKASGYTFTSYNMHWVKQTPGQGLEWIGVIYPGNGDTSYNQKFKGKATLTADKSSSTAYMQLSSLTSEDSAVYYCARDYYGSSPLGYWGQGTTLTVSS VL: QIVLTQSPAVMSASPGEKVTMTCSASSSISYMHWYQQKPGTSPKRWIYDTSKLASGVPARFSGSGSGTSYSLTISSMEAEDAATYYCHQRSSYPTFGGGTKLEIK	80
S-SL048-112 hIgG4 S228P (antibody, V domains shown, Tested as human IgG4 S228P) VH: QVQLVQSGAEVKKPGASVKVSCKASGYTFTSYNMHWVRQAPGQGLEWIGIIYPGDGATSYNQKFKGRVTMTRDTSTSTVYMELSSLRSEDTAVYYCARDYYGSSPLGYWGQGTLVTVSS VL: DIQMTQSPSSLSASVGDRVTITCRASSSISYMHWYQQKPGKAPKLLIYATSRLASGVPSRFSGSGSGTDFTLTISSLQPEDFATYYCHQRSSTPTFGQGTKLEIK	54
S-SL048-79 hIgG4 S228P (antibody, V domains shown, Tested as human IgG4 S228P) VH: QVQLVQSGAEVKKPGASVKVSCKASGYTFTSYNMHWVRQAPGQGLEWMGVINPSDGATSYAQKFQGRVTMTRDTSTSTVYMELSSLRSEDTAVYYCARDYYGSSPLGYWGQGTLVTVSS VL: DIQMTQSPSSLSASVGDRVTITCSASQSISYLNWYQQKPGKAPKLLIYAASRLPSGVPSRFSGSGSGTDFTLTISSLQPEDFATYYCHQRSSYPTFGQGTKLEIK	52

Consider the additional binder presented here.
Prompt: Requested read-out: percentage reduction of b-hBSSL binding to CD14+ monocytes. Entry: S-SL048-108 hIgG4 S228P (antibody, V domains shown, Tested as human IgG4 S228P) VH: QVQLVQSGAEVKKPGASVKVSCKASGYTFTSYNMHWVRQAPGQGLEWIGVINPSDGATSYAQKFKGRVTMTRDTSTSTVYMELSSLRSEDTAVYYCARDYYGSSPLGYWGQGTLVTVSS VL: DIQMTQSPSSLSASVGDRVTITCSASPSISYLNWYQQKPGKAPKLLIYATSSLASGVPSRFSGSGSGTDFTLTISSLQPEDFATYYCQQRSSSPTFGQGTKLEIK
Completion: 48
